Every entry's value here was drawn from the supplement of paper PMC10627819.

system: S. pneumoniae D39V; experiment: Bliss interaction score (quartile over a dose matrix) (fitness difference); higher = more antagonism (negative = synergy);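 also: first quartile when negative (synergy) and third quartile when positive (antagonism)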
Would you mind labelling by Bliss interaction score? At or over 0.06 is Condition met, under is Condition not met.

# Molecule, Tested target, Class label
measured = [
    ("CN(N=O)C(=O)N[C@@H](C=O)[C@@H](O)[C@H](O)[C@H](O)CO [Streptozotocin] + Cn1nnc(-c2ccc(-c3ccc(N4C[C@H](CO)OC4=O)cc3F)cn2)n1 [Tedizolid]", "S. pneumoniae D39V", "Condition not met"),
    ("Clc1ccc(COC(Cn2ccnc2)c2ccc(Cl)cc2Cl)c(Cl)c1 (centres undefined) [Miconazole] + CN[C@H](CC(C)C)C(=O)N[C@H]1C(=O)N[C@@H](CC(N)=O)C(=O)N[C@H]2C(=O)N[C@H]3C(=O)N[C@H](C(=O)N[C@H](C(=O)O)c4cc(O)cc(O)c4-c4cc3ccc4O)[C@H](O)c3ccc(c(Cl)c3)Oc3cc2cc(c3O[C@@H]2O[C@H](CO)[C@@H](O)[C@H](O)[C@H]2O[C@H]2C[C@](C)(N)[C@H](O)[C@H](C)O2)Oc2ccc(cc2Cl)[C@H]1O [Vancomycin]", "S. pneumoniae D39V", "Condition met"),
    ("O=C(O)[C@H]1/C(=C/CO)O[C@@H]2CC(=O)N21 [Clavulanic] + CCC[C@@H]1C[C@@H](C(=O)N[C@@H]([C@H]2O[C@H](SC)[C@H](O)[C@@H](O)[C@H]2O)[C@H](C)Cl)N(C)C1 [Clindamycin]", "S. pneumoniae D39V", "Condition not met"),
    ("Clc1ccc(COC(Cn2ccnc2)c2ccc(Cl)cc2Cl)c(Cl)c1 (centres undefined) [Miconazole] + CN(N=O)C(=O)N[C@@H](C=O)[C@@H](O)[C@H](O)[C@H](O)CO [Streptozotocin]", "S. pneumoniae D39V", "Condition met"),
    ("C[n+]1ccc(-c2cc[n+](C)cc2)cc1 [Paraquat] + CC[C@H]1OC(=O)[C@H](C)C(=O)[C@H](C)[C@@H](O[C@@H]2O[C@H](C)C[C@H](N(C)C)[C@H]2O)[C@](C)(OC)C[C@@H](C)C(=O)[C@H](C)[C@H]2N(CCCCn3cnc(-c4cccnc4)c3)C(=O)O[C@]12C [Telithromycin]", "S. pneumoniae D39V", "Condition met"),
    ("CC[C@H]1OC(=O)[C@H](C)[C@@H](O[C@H]2C[C@@](C)(OC)[C@@H](O)[C@H](C)O2)[C@H](C)[C@@H](O[C@@H]2O[C@H](C)C[C@H](N(C)C)[C@H]2O)[C@](C)(O)C[C@@H](C)CN(C)[C@H](C)[C@@H](O)[C@]1(C)O [Azithromycin] + C[C@H]1c2cccc(O)c2C(=O)C2=C(O)[C@]3(O)C(=O)C(C(N)=O)=C(O)[C@@H](N(C)C)[C@@H]3[C@@H](O)[C@@H]21 [Doxycycline]", "S. pneumoniae D39V", "Condition not met"),
    ("Cc1onc(-c2ccccc2)c1C(=O)N[C@@H]1C(=O)N2[C@@H]1SC(C)(C)[C@@H]2C(=O)O [Oxacillin] + CC1=C\\[C@@H](O)CC(=O)Cc2nc(co2)C(=O)N2CCC=C2C(=O)O[C@H](C(C)C)[C@H](C)/C=C/C(=O)NC\\C=C\\1 [Virginiamycin M1]", "S. pneumoniae D39V", "Condition met"),
    ("CC[C@H]1OC(=O)[C@H](C)[C@@H](O[C@H]2C[C@@](C)(OC)[C@@H](O)[C@H](C)O2)[C@H](C)[C@@H](O[C@@H]2O[C@H](C)C[C@H](N(C)C)[C@H]2O)[C@](C)(O)C[C@@H](C)CN(C)[C@H](C)[C@@H](O)[C@]1(C)O [Azithromycin] + COc1cc(Cc2cnc(N)nc2N)cc(OC)c1OC [Trimethoprim]", "S. pneumoniae D39V", "Condition not met"),
    ("Clc1ccc(COC(Cn2ccnc2)c2ccc(Cl)cc2Cl)c(Cl)c1 (centres undefined) [Miconazole] + CC[C@H]1OC(=O)[C@H](C)C(=O)[C@H](C)[C@@H](O[C@@H]2O[C@H](C)C[C@H](N(C)C)[C@H]2O)[C@](C)(OC)C[C@@H](C)C(=O)[C@H](C)[C@H]2N(CCCCn3cnc(-c4cccnc4)c3)C(=O)O[C@]12C [Telithromycin]", "S. pneumoniae D39V", "Condition met"),
    ("Oc1cc(Cl)ccc1Oc1ccc(Cl)cc1Cl [Triclosan] + CC1=C\\[C@@H](O)CC(=O)Cc2nc(co2)C(=O)N2CCC=C2C(=O)O[C@H](C(C)C)[C@H](C)/C=C/C(=O)NC\\C=C\\1 [Virginiamycin M1]", "S. pneumoniae D39V", "Condition not met"),
    ("C[n+]1ccc(-c2cc[n+](C)cc2)cc1 [Paraquat] + CC1(C)S[C@@H]2[C@H](NC(=O)Cc3ccccc3)C(=O)N2[C@H]1C(=O)O [PenicillinG]", "S. pneumoniae D39V", "Condition not met"),
    ("CC[C@H]1OC(=O)[C@H](C)[C@@H](O[C@H]2C[C@@](C)(OC)[C@@H](O)[C@H](C)O2)[C@H](C)[C@@H](O[C@@H]2O[C@H](C)C[C@H](N(C)C)[C@H]2O)[C@](C)(O)C[C@@H](C)CN(C)[C@H](C)[C@@H](O)[C@]1(C)O [Azithromycin] + CN[C@@H]1[C@H](O)[C@H](NC)[C@H]2O[C@@]3(O)C(=O)C[C@@H](C)O[C@H]3O[C@@H]2[C@H]1O [Spectinomycin]", "S. pneumoniae D39V", "Condition not met"),
    ("CC1=C(C(=O)O)N2C(=O)[C@@H](NC(=O)[C@H](N)c3ccccc3)[C@H]2SC1 [Cephalexin] + CC1=C\\[C@@H](O)CC(=O)Cc2nc(co2)C(=O)N2CCC=C2C(=O)O[C@H](C(C)C)[C@H](C)/C=C/C(=O)NC\\C=C\\1 [Virginiamycin M1]", "S. pneumoniae D39V", "Condition met"),
    ("O=C(O)[C@H]1/C(=C/CO)O[C@@H]2CC(=O)N21 [Clavulanic] + C[n+]1ccc(-c2cc[n+](C)cc2)cc1 [Paraquat]", "S. pneumoniae D39V", "Condition not met"),
]

* * *

system: S. pneumoniae D39V; assay: Bliss interaction score (quartile over a dose matrix) (fitness difference); higher = more antagonism (negative = synergy)

# Compound, Tested target, Bliss interaction score
data = [
    ("Clc1ccc(COC(Cn2ccnc2)c2ccc(Cl)cc2Cl)c(Cl)c1 (centres undefined) [Miconazole] + CC1=C\\[C@@H](O)CC(=O)Cc2nc(co2)C(=O)N2CCC=C2C(=O)O[C@H](C(C)C)[C@H](C)/C=C/C(=O)NC\\C=C\\1 [Virginiamycin M1]", "S. pneumoniae D39V", 0.0555),
    ("O=C(O)[C@H]1/C(=C/CO)O[C@@H]2CC(=O)N21 [Clavulanic] + C[C@H]1COc2c(N3CCN(C)CC3)c(F)cc3c(=O)c(C(=O)O)cn1c23 [Levofloxacin]", "S. pneumoniae D39V", -0.197),
    ("O=C(O)[C@H]1/C(=C/CO)O[C@@H]2CC(=O)N21 [Clavulanic] + Cc1cc(NS(=O)(=O)c2ccc(N)cc2)no1 [Sulfamethoxazol]", "S. pneumoniae D39V", 0.0674),
    ("CC1=C(C(=O)O)N2C(=O)[C@@H](NC(=O)[C@H](N)c3ccccc3)[C@H]2SC1 [Cephalexin] + CC[C@H]1OC(=O)[C@H](C)[C@@H](O[C@H]2C[C@@](C)(OC)[C@@H](O)[C@H](C)O2)[C@H](C)[C@@H](O[C@@H]2O[C@H](C)C[C@H](N(C)C)[C@H]2O)[C@](C)(OC)C[C@@H](C)C(=O)[C@H](C)[C@@H](O)[C@]1(C)O [Clarithromycin]", "S. pneumoniae D39V", 0.0361),
]

* * *

test system: S. aureus DSM 20231; experiment: Bliss interaction score (quartile over a dose matrix) (fitness difference); higher = more antagonism (negative = synergy)
Observable: Bliss interaction score

# Compound, Meas value
rows = [
    ("O=C(O)[C@H]1/C(=C/CO)O[C@@H]2CC(=O)N21 [Clavulanic] + Oc1cc(Cl)ccc1Oc1ccc(Cl)cc1Cl [Triclosan]", 0.081),
    ("CC[C@H]1OC(=O)[C@H](C)[C@@H](O[C@H]2C[C@@](C)(OC)[C@@H](O)[C@H](C)O2)[C@H](C)[C@@H](O[C@@H]2O[C@H](C)C[C@H](N(C)C)[C@H]2O)[C@](C)(O)C[C@@H](C)CN(C)[C@H](C)[C@@H](O)[C@]1(C)O [Azithromycin] + C[C@H]1COc2c(N3CCN(C)CC3)c(F)cc3c(=O)c(C(=O)O)cn1c23 [Levofloxacin]", 0.0911),
    ("Clc1ccc(COC(Cn2ccnc2)c2ccc(Cl)cc2Cl)c(Cl)c1 (stereo not drawn) [Miconazole] + Cn1nnc(-c2ccc(-c3ccc(N4C[C@H](CO)OC4=O)cc3F)cn2)n1 [Tedizolid]", 0.0592),
    ("CN(N=O)C(=O)N[C@@H](C=O)[C@@H](O)[C@H](O)[C@H](O)CO [Streptozotocin] + CN(C)c1cc(NC(=O)CNC(C)(C)C)c(O)c2c1C[C@H]1C[C@H]3[C@H](N(C)C)C(O)=C(C(N)=O)C(=O)[C@@]3(O)C(O)=C1C2=O [Tigecycline]", 0.0681),
    ("CN(N=O)C(=O)N[C@@H](C=O)[C@@H](O)[C@H](O)[C@H](O)CO [Streptozotocin] + Oc1cc(Cl)ccc1Oc1ccc(Cl)cc1Cl [Triclosan]", 0.0542),
    ("CC[C@H]1OC(=O)[C@H](C)[C@@H](O[C@H]2C[C@@](C)(OC)[C@@H](O)[C@H](C)O2)[C@H](C)[C@@H](O[C@@H]2O[C@H](C)C[C@H](N(C)C)[C@H]2O)[C@](C)(O)C[C@@H](C)CN(C)[C@H](C)[C@@H](O)[C@]1(C)O [Azithromycin] + COc1c(N2C[C@@H]3CCCN[C@@H]3C2)c(F)cc2c(=O)c(C(=O)O)cn(C3CC3)c12 [Moxifloxacin]", 0.0773),
    ("C[n+]1ccc(-c2cc[n+](C)cc2)cc1 [Paraquat] + Cc1cc(NS(=O)(=O)c2ccc(N)cc2)no1 [Sulfamethoxazol]", -0.0548),
    ("CC[C@H]1OC(=O)[C@H](C)[C@@H](O[C@H]2C[C@@](C)(OC)[C@@H](O)[C@H](C)O2)[C@H](C)[C@@H](O[C@@H]2O[C@H](C)C[C@H](N(C)C)[C@H]2O)[C@](C)(O)C[C@@H](C)CN(C)[C@H](C)[C@@H](O)[C@]1(C)O [Azithromycin] + C1=CC(=CC(=C1)Cl)NN=C(C#N)C#N [CCCP]", -0.0316),
]
